- System: COLO 205
- ASSAY_PROCEDURE: Antiproliferative activity against human COLO205 cells after 96 hrs by CCK-8 assay
- Type: functional, cell-based
- RUN_PARAMETERS: COLO 205, 96 h
READOUT_KIND: IC50 (nM)
Respond numerically; units are nM and should not be typed.

Lab note: need IC50 with COLO 205 for entry CCN1CCN(Cc2cnc(Nc3cc(-c4cc(F)c5nc(C)n(C(C)C)c5c4)ccn3)cn2)CC1 , please look it up. 50

Lab note: need IC50 with COLO 205 for entry CCN1CCN(Cc2ccc(Nc3cc(-c4cc(F)c5nc(C)n(C(C)C)c5c4)c(F)cn3)nn2)CC1 , please look it up. 630

Lab note: need IC50 with COLO 205 for entry CCN1CCN(Cc2cnc(Nc3cc(-c4cc(F)c5nc(C)n(C(C)C)c5c4)ncn3)nc2)CC1 , please look it up. 3740
